System: Wheat, Winter, cv Riband, Triticum aestivum
ASSAY NAME: Preemergence herbicidal evaluation, TRZAWR
Assay type: in vivo
CONDITION: 0.2500 kg/ha

MOLECULE: COC(=O)COc1c(C)cc(C)cc1-c1nsc2ccc(-n3c(=O)cc(C(F)(F)F)n(C)c3=O)cc12
EXPERIMENTAL TARGET: Wheat, Winter, cv Riband, Triticum aestivum
herbicide rating (0-9): 5.0
//
MOLECULE: COC(=O)COc1cc(C)ccc1-c1nsc2ccc(-n3c(=O)cc(C(F)(F)F)n(C)c3=O)cc12
EXPERIMENTAL TARGET: Wheat, Winter, cv Riband, Triticum aestivum
herbicide rating (0-9): 9.0
//
MOLECULE: Cn1c(C(F)(F)F)cc(=O)n(-c2ccc3onc(-c4ccccc4)c3c2)c1=O
EXPERIMENTAL TARGET: Wheat, Winter, cv Riband, Triticum aestivum
herbicide rating (0-9): 7.0
//
MOLECULE: COC(=O)C(C)Oc1cc(C)c(C)cc1-c1nsc2ccc(-n3c(=O)cc(C(F)(F)F)n(C)c3=O)cc12 (stereo not drawn)
EXPERIMENTAL TARGET: Wheat, Winter, cv Riband, Triticum aestivum
herbicide rating (0-9): 4.0
//
MOLECULE: COC(=O)C(C)Oc1ccc(C(C)C)cc1-c1nsc2ccc(-n3c(=O)cc(C(F)(F)F)n(C)c3=O)cc12 (stereo not drawn)
EXPERIMENTAL TARGET: Wheat, Winter, cv Riband, Triticum aestivum
herbicide rating (0-9): 7.0
//
MOLECULE: COC(=O)C(C)Oc1c(C)cc(C)cc1-c1nsc2ccc(-n3c(=O)cc(C(F)(F)F)n(C)c3=O)cc12 (stereo not drawn)
EXPERIMENTAL TARGET: Wheat, Winter, cv Riband, Triticum aestivum
herbicide rating (0-9): 5.0
//
MOLECULE: COC(=O)C(C)Oc1ccc(C)cc1-c1nsc2ccc(-n3c(=O)cc(C(F)(F)F)n(C)c3=O)cc12 (stereo not drawn)
EXPERIMENTAL TARGET: Wheat, Winter, cv Riband, Triticum aestivum
herbicide rating (0-9): 6.3
//
MOLECULE: Cc1noc2cc(F)c(-n3c(=O)cc(C(F)(F)F)n(C)c3=O)cc12
EXPERIMENTAL TARGET: Wheat, Winter, cv Riband, Triticum aestivum
herbicide rating (0-9): 9.0
//
MOLECULE: COc1ccc(C)cc1-c1nsc2ccc(-n3c(=O)cc(C)n(C)c3=O)cc12
EXPERIMENTAL TARGET: Wheat, Winter, cv Riband, Triticum aestivum
herbicide rating (0-9): 0.0
//
MOLECULE: COC(=O)COc1ccc(C)cc1-c1nsc2ccc(-n3c(=O)cc(C(F)(F)F)n(C)c3=O)cc12
EXPERIMENTAL TARGET: Wheat, Winter, cv Riband, Triticum aestivum
herbicide rating (0-9): 4.0
//
MOLECULE: COC(=O)C(C)Oc1cc(C)ccc1-c1nsc2ccc(-n3c(=O)cc(C(F)(F)F)n(C)c3=O)cc12 (stereo not drawn)
EXPERIMENTAL TARGET: Wheat, Winter, cv Riband, Triticum aestivum
herbicide rating (0-9): 9.0
//
MOLECULE: COc1ccc(C)cc1-c1nsc2ccc(-n3c(=O)cc(C(F)(F)F)n(C)c3=O)cc12
EXPERIMENTAL TARGET: Wheat, Winter, cv Riband, Triticum aestivum
herbicide rating (0-9): 6.0
